Assay: Hygroscopicity studies (water content after storage at 43 %, 75 % and 93 % relative humidity)
Type: physicochemical
Conditions: 2 weeks at 75 % rh; % Equilibrium moisture content; ss = semi solid state of sample; β = solid first changed into liquid and solidified again
Where a name gives a salt, the structure may show the parent alone.
Overview of reported Hygroscopicity 2 weeks 75 % rh across a group of compounds:
QUANTITY: Hygroscopicity 2 weeks 75 % rh (%)

| COMPOUND | QUANTITY | READOUT_VALUE |
| --- | --- | --- |
| N[C@@H](CC(=O)N1CCn2c(nnc2C(F)(F)F)C1)Cc1cc(F)c(F)cc1F [K: Mesylate I] | Hygroscopicity 2 weeks 75 % rh | 0.49 |
| N[C@@H](CC(=O)N1CCn2c(nnc2C(F)(F)F)C1)Cc1cc(F)c(F)cc1F [N: Mesylate II] | Hygroscopicity 2 weeks 75 % rh | 3.37 |

* * *

Test: Hygroscopicity studies (water content after storage at 43 %, 75 % and 93 % relative humidity)
Format: physicochemical
Details: initial sample, before humidity storage
Structures can show the parent of a compound that is named as a salt.
Overview of reported Initial water content across a group of molecules:
QUANTITY: Initial water content (%)

| MOLECULE | READOUT_VALUE |
| --- | --- |
| N[C@@H](CC(=O)N1CCn2c(nnc2C(F)(F)F)C1)Cc1cc(F)c(F)cc1F [C: Lactate, Sitagliptin Lactate] | 0.51 |
| N[C@@H](CC(=O)N1CCn2c(nnc2C(F)(F)F)C1)Cc1cc(F)c(F)cc1F [E: Sulfate I, Sitagliptin Sulfate Form I] | 0.69 |
| N[C@@H](CC(=O)N1CCn2c(nnc2C(F)(F)F)C1)Cc1cc(F)c(F)cc1F [A: Phosphate, Sitagliptin Phosphate] | 0.46 |
| N[C@@H](CC(=O)N1CCn2c(nnc2C(F)(F)F)C1)Cc1cc(F)c(F)cc1F [Base, reference compound] | 0.19 |
| N[C@@H](CC(=O)N1CCn2c(nnc2C(F)(F)F)C1)Cc1cc(F)c(F)cc1F [B: HCl I, Sitagliptin Hydrochloride Form I] | 1.4 |

* * *

Assay: Stability studies (storage at 60 °C in closed bottles or at 40 °C / 75 % RH in an open bottle; related substances by HPLC)
Details: 4 weeks, 60°C, closed bottle; 40320 min
Where a name gives a salt, the structure may show the parent alone.
Mark T only when Related Substances 4 w 60°C Closed bottle stays strictly below 0.3%. Values equal to the cut-off are F.

| MOLECULE | GROUP_LABEL |
| --- | --- |
| N[C@@H](CC(=O)N1CCn2c(nnc2C(F)(F)F)C1)Cc1cc(F)c(F)cc1F [O: Sulfate II] | F |
| N[C@@H](CC(=O)N1CCn2c(nnc2C(F)(F)F)C1)Cc1cc(F)c(F)cc1F [N: Mesylate II] | T |
| N[C@@H](CC(=O)N1CCn2c(nnc2C(F)(F)F)C1)Cc1cc(F)c(F)cc1F [Base, reference compound] | F |
| N[C@@H](CC(=O)N1CCn2c(nnc2C(F)(F)F)C1)Cc1cc(F)c(F)cc1F [M: Phosphate H2O] | T |
| N[C@@H](CC(=O)N1CCn2c(nnc2C(F)(F)F)C1)Cc1cc(F)c(F)cc1F [C: Lactate, Sitagliptin Lactate] | F |

* * *

Assay: Hygroscopicity studies (water content after storage at 43 %, 75 % and 93 % relative humidity)
Type: physicochemical
Conditions: 2 weeks 43 % rh
Structures can show the parent of a compound that is named as a salt.

| COMPOUND | MEASUREMENT_UNIT | Hygroscopicity (water content) |
| --- | --- | --- |
| N[C@@H](CC(=O)N1CCn2c(nnc2C(F)(F)F)C1)Cc1cc(F)c(F)cc1F [A: Phosphate, Sitagliptin Phosphate] | % | 0.41 |
| N[C@@H](CC(=O)N1CCn2c(nnc2C(F)(F)F)C1)Cc1cc(F)c(F)cc1F [Base, reference compound] | % | 0.19 |
| N[C@@H](CC(=O)N1CCn2c(nnc2C(F)(F)F)C1)Cc1cc(F)c(F)cc1F [C: Lactate, Sitagliptin Lactate] | % | 0.54 |
| N[C@@H](CC(=O)N1CCn2c(nnc2C(F)(F)F)C1)Cc1cc(F)c(F)cc1F [B: HCl I, Sitagliptin Hydrochloride Form I] | % | 3.86 |
| N[C@@H](CC(=O)N1CCn2c(nnc2C(F)(F)F)C1)Cc1cc(F)c(F)cc1F [E: Sulfate I, Sitagliptin Sulfate Form I] | % | 1.12 |

* * *

Test: Stability studies (storage at 60 °C in closed bottles or at 40 °C / 75 % RH in an open bottle; related substances by HPLC)
Details: closed bottle, four weeks at 60 °C
Counter-ions that a name gives are not always drawn.
QUANTITY: stability (degradation, related substances by HPLC)

| MOLECULE | READOUT_VALUE |
| --- | --- |
| N[C@@H](CC(=O)N1CCn2c(nnc2C(F)(F)F)C1)Cc1cc(F)c(F)cc1F [C: Lactate, Sitagliptin Lactate] | showed a degradation |
| N[C@@H](CC(=O)N1CCn2c(nnc2C(F)(F)F)C1)Cc1cc(F)c(F)cc1F [maleate, sitagliptin maleate] | showed a degradation |

* * *

Assay: Stability studies (storage at 60 °C in closed bottles or at 40 °C / 75 % RH in an open bottle; related substances by HPLC)
Conditions: 12 weeks, 40°C/75 % RH, closed bottle; 120960 min
Structures can show the parent of a compound that is named as a salt.
QUANTITY: Related Substances 12 weeks 40°C/75 % RH closed bottle (%)

| COMPOUND | READOUT_VALUE |
| --- | --- |
| N[C@@H](CC(=O)N1CCn2c(nnc2C(F)(F)F)C1)Cc1cc(F)c(F)cc1F [O: Sulfate II] | 0.25 |
| N[C@@H](CC(=O)N1CCn2c(nnc2C(F)(F)F)C1)Cc1cc(F)c(F)cc1F [A: Phosphate, Sitagliptin Phosphate] | 0.57 |
| N[C@@H](CC(=O)N1CCn2c(nnc2C(F)(F)F)C1)Cc1cc(F)c(F)cc1F [B: HCl I, Sitagliptin Hydrochloride Form I] | 0.14 |
| N[C@@H](CC(=O)N1CCn2c(nnc2C(F)(F)F)C1)Cc1cc(F)c(F)cc1F [M: Phosphate H2O] | 0.09 |
| N[C@@H](CC(=O)N1CCn2c(nnc2C(F)(F)F)C1)Cc1cc(F)c(F)cc1F [E: Sulfate I, Sitagliptin Sulfate Form I] | 0.03 |
| N[C@@H](CC(=O)N1CCn2c(nnc2C(F)(F)F)C1)Cc1cc(F)c(F)cc1F [Q: HCl II] | 0.34 |
| N[C@@H](CC(=O)N1CCn2c(nnc2C(F)(F)F)C1)Cc1cc(F)c(F)cc1F [C: Lactate, Sitagliptin Lactate] | 0.56 |
| N[C@@H](CC(=O)N1CCn2c(nnc2C(F)(F)F)C1)Cc1cc(F)c(F)cc1F [Base, reference compound] | 0.52 |
| N[C@@H](CC(=O)N1CCn2c(nnc2C(F)(F)F)C1)Cc1cc(F)c(F)cc1F [N: Mesylate II] | 0.07 |
| N[C@@H](CC(=O)N1CCn2c(nnc2C(F)(F)F)C1)Cc1cc(F)c(F)cc1F [H: Glycolate] | 1.09 |

* * *

Assay: Stability studies (storage at 60 °C in closed bottles or at 40 °C / 75 % RH in an open bottle; related substances by HPLC)
Settings: 4 weeks, 40°C/75 % RH, closed; 40320 min
Counter-ions that a name gives are not always drawn.
Overview of reported Related Substances 4 w 40°C/75 % RH closed across a group of molecules:
QUANTITY: Related Substances 4 w 40°C/75 % RH closed (%)

| MOLECULE | MEASUREMENT_UNIT | READOUT_VALUE |
| --- | --- | --- |
| N[C@@H](CC(=O)N1CCn2c(nnc2C(F)(F)F)C1)Cc1cc(F)c(F)cc1F [Base, reference compound] | % | 0.46 |
| N[C@@H](CC(=O)N1CCn2c(nnc2C(F)(F)F)C1)Cc1cc(F)c(F)cc1F [M: Phosphate H2O] | % | 0.08 |
| N[C@@H](CC(=O)N1CCn2c(nnc2C(F)(F)F)C1)Cc1cc(F)c(F)cc1F [N: Mesylate II] | % | 0.08 |
| N[C@@H](CC(=O)N1CCn2c(nnc2C(F)(F)F)C1)Cc1cc(F)c(F)cc1F [Q: HCl II] | % | 0.30 |
| N[C@@H](CC(=O)N1CCn2c(nnc2C(F)(F)F)C1)Cc1cc(F)c(F)cc1F [O: Sulfate II] | % | 0.24 |
| N[C@@H](CC(=O)N1CCn2c(nnc2C(F)(F)F)C1)Cc1cc(F)c(F)cc1F [C: Lactate, Sitagliptin Lactate] | % | 0.28 |
| N[C@@H](CC(=O)N1CCn2c(nnc2C(F)(F)F)C1)Cc1cc(F)c(F)cc1F [A: Phosphate, Sitagliptin Phosphate] | % | 0.31 |
| N[C@@H](CC(=O)N1CCn2c(nnc2C(F)(F)F)C1)Cc1cc(F)c(F)cc1F [B: HCl I, Sitagliptin Hydrochloride Form I] | % | 0.01 |
| N[C@@H](CC(=O)N1CCn2c(nnc2C(F)(F)F)C1)Cc1cc(F)c(F)cc1F [E: Sulfate I, Sitagliptin Sulfate Form I] | % | 0.02 |
| N[C@@H](CC(=O)N1CCn2c(nnc2C(F)(F)F)C1)Cc1cc(F)c(F)cc1F [H: Glycolate] | % | 0.49 |
